Experiment: resazurin metabolic signal in HepG2 cells – cell-based, resazurin fluorescence, 24 h, PK04 Diversity Set, profiling panel (AID 1172); further: test concentration not given here
Conditions: HepG2 viability, higher = more signal
Consider the following compounds; for each one, report its z-score.

Lookup: Supply z-score value. Item: CCCNC(=O)[C@@]1(C)c2ccccc2C(=O)N(C(C)C)[C@H]1c1ccc(CO)cc1
Found: 0.241

Lookup: Tell me measured z-score for C=C(C)[C@@H]1CC=C(C(O)C2C=CC3C(=O)N(Cc4ccccc4)C(=O)C3N2n2cnnc2)CC1 (stereo partly drawn) please.
Found: -0.429

Lookup: Give the reported z-score for this compound. CCN(CC)c1ccc(N2CC=CC34O[C@@H]5C=CCOC(=O)[C@@H]5[C@H]3C(=O)N(CCCCCO)[C@@H]4C2=O)cc1 (stereo partly drawn)
Found: 0.34

Lookup: Give a short answer stating reported z-score for COC(=O)c1nc2oc1CC[C@@H](CO)NC(=O)N(C)Cc1cn(nn1)C[C@H](Cc1ccccc1)NC2=O .
Found: 0.395

Lookup: Dear colleague, please send me the reported z-score for O=C1O[C@H](c2ccccc2)[C@H](c2ccccc2)N2[C@H]1[C@@H](C(=O)Nc1nc3ccccc3s1)[C@]1(C(=O)Nc3ccc(C#CC4=CCCCC4)cc31)[C@H]2c1ccc(OCCO)cc1 when you can.
Found: 0.281

Lookup: Give reported z-score value for C=CCN1C(=O)[C@]2(Cc3ccccc31)N=C(c1ccc(OCCCO)cc1)O[C@@H]2c1ccccc1
Found: -1.05

Lookup: Return value of z-score for input COC(=O)c1c2oc(c1C(=O)OC)C(=O)N[C@H](Cc1ccccc1)Cn1nncc1C1(CCCCC1)NC(=O)N[C@H](CO)CC2 , no commentary.
Found: 1.09

Lookup: State its z-score for this compound: COc1ccc([Si](C)(C)[C@H]2[C@H](CC(=O)N3CCC[C@H]3CO)O[C@@]3(C(=O)N(c4ccccc4)c4ccccc43)[C@@H]2C)cc1
Found: 1.75

Lookup: Give the reported value of z-score for this record: NC(=O)[C@@]1(CCS(=O)(=O)c2ccccc2)N=C(c2ccc(OCCCO)cc2)O[C@H]1c1ccccc1
Found: -0.0687

Lookup: Give the value of z-score reported for the following: C=CCOC(=O)[C@@H]1[C@H]2C(=O)O[C@H](c3ccccc3)[C@H](c3ccccc3)N2[C@H](c2ccc(OCCOC(=O)[C@H]3C[C@H]4C(=O)N[C@@H](CCCC[N+](C)(C)C)C(=O)N4[C@H]3c3cccc(OCCO)c3)cc2)[C@@]12C(=O)Nc1ccc(I)cc12
Found: -0.0059

Lookup: Check the records and state z-score for COCCOC(=O)N1C(=O)[C@@]2(c3cc(C#CC4=CCCCC4)ccc31)[C@H](C(=O)N1CCN(c3ncccn3)CC1)[C@H]1C(=O)O[C@H](c3ccccc3)[C@H](c3ccccc3)N1[C@@H]2c1ccc(OCCO)cc1
Found: 0.156

Lookup: Give reported z-score value for Cc1ccc([C@H]2C(C(=O)O)=C[C@@H](C(C)C)N2S(=O)(=O)c2ccc(C)cc2)cc1
Found: -0.357

Lookup: Return z-score for the following compound: C=CCC(OC(C)=O)[C@@H]1[C@@H](N(Cc2ccc(-c3cccc(C(F)(F)F)c3)o2)C(=O)c2ccc(C)cc2)c2cc(OCCCO)ccc2N1C(=O)c1ccc2ccccc2n1 (stereo partly drawn)
Found: 0.347
